# TARGET UNDER TEST: T1, human Tim-3 expressed on the cell surface (human, UniProt Q8TDQ0 22-301)
# T1 construct: also called hTim-3; Human Tim-3 (CHO)
# TEST SUMMARY: flow cytometry, activated human CD4+ T cells
# pKd values compiled below
pKd is a log-scale quantity: -log10 of the concentration expressed in molar.

[[record]]
binder = "h22E11-VK4-1 × h22E11-5-IgG-HC (antibody, V domains shown, Humanized m22E11) VH: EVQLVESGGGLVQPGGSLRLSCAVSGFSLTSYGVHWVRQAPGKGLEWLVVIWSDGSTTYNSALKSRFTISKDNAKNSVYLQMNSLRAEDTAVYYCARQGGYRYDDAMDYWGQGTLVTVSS VL: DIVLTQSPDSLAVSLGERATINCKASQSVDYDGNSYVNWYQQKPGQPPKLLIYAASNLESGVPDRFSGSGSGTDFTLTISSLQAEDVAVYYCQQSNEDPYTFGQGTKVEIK"
parameter_measured = "pKd"
readout_number = 8.85


We now examine a further binder.
// returns reported pKd for input h22E11-VK3-11 × h22E11-VH4-30-4 (antibody, V domains shown, Humanized m22E11) VH: QVQLQESGPGLVKPSQTLSLTCTVSGFSLTSYGVHWIRQPPGKGLEWLVVIWSDGSTTYNPSLKSRVTISKDTSKNQVSLKLSSVTAADTAVYYCARQGGYRYDDAMDYWGQGTLVTVSS VL: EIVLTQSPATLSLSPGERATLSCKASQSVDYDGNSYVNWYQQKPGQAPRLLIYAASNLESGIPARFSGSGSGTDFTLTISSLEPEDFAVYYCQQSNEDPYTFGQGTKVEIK 8.15
